target: IKZF2 (Homo sapiens (Human), UniProt Q96SW2+Q9UKS7); assay: In vitro IKZF2 HiBit Assay (HEK293T Flp-in-HiBiT cells); type: cell-based; settings: HEK293T Flp-in-HiBiT cells, 6 hrs incubation; read-out: IKZF2 HiBit DC50
Sequence (Q9UKS7 whole entry): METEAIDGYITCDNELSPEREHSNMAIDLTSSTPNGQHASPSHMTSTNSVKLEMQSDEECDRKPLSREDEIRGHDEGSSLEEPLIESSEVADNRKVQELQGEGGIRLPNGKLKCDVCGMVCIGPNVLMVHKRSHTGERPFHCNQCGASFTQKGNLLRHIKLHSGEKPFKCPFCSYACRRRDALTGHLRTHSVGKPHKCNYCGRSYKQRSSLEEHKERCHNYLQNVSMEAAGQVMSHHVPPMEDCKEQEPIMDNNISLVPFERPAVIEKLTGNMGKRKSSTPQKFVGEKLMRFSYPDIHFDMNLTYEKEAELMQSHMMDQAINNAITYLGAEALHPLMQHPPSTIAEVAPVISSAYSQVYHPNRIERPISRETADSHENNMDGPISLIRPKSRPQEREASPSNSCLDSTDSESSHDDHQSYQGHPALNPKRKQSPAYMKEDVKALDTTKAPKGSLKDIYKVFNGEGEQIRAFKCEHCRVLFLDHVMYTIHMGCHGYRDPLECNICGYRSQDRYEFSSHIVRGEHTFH
Sequence (Q96SW2 whole entry): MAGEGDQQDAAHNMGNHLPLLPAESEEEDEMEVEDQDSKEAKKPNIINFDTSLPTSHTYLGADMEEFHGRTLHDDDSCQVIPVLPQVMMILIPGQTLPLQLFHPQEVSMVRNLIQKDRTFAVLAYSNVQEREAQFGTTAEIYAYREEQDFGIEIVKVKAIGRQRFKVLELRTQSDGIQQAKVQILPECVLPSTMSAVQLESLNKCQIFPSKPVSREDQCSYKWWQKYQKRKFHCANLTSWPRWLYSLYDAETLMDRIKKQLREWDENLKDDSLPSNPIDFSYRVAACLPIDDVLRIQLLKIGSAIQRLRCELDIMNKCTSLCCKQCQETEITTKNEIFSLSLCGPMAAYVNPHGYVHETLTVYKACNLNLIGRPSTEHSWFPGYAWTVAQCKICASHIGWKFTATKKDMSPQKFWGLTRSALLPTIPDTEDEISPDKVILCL
Sequence (Q16531 2-1140 partner): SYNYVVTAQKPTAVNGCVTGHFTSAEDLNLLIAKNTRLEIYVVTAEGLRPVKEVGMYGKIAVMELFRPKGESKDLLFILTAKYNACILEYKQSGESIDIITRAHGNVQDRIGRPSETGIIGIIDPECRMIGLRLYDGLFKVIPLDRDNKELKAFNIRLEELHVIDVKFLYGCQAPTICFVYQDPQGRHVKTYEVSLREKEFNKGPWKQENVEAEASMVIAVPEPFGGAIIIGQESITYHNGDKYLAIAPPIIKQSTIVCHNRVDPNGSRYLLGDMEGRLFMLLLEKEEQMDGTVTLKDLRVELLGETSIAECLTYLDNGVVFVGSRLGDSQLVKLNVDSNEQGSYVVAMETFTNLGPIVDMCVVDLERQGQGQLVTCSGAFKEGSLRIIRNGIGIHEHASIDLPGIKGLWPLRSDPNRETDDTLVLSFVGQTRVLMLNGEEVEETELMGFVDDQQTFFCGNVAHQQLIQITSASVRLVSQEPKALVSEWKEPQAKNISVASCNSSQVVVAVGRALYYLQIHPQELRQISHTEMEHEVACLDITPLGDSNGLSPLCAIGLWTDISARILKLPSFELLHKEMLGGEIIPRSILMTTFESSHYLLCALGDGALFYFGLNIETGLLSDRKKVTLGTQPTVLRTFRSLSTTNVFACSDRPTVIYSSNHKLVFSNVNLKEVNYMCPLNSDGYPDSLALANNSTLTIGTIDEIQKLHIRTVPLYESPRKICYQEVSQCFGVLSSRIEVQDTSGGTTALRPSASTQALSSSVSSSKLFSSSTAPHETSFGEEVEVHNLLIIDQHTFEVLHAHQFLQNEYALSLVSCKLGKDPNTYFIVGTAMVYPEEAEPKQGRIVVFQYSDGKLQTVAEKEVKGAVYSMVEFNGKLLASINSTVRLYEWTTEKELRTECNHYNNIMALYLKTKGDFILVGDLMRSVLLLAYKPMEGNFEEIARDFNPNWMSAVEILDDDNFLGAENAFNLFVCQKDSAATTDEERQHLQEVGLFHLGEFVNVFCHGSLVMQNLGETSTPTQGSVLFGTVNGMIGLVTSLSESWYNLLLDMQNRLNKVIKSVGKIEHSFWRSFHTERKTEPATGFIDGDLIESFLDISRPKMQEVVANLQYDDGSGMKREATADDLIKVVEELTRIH
Record form. Attribute: DC50. Fill in for each entry.

query: Field request: DC50 | item: CC1c2cc(-c3cc(CN4CCCC4)c4ccn(C5COC5)c4n3)ccc2C(=O)N1C1CCC(=O)NC1=O (stereo not drawn)
result: 1 to 10 nM

query: Given the molecule O=C1CCC(N2Cc3cc(-c4cc(CN5CCCC5)c5ccn(C6CCOC6)c5n4)ccc3C2=O)C(=O)N1 (stereo not drawn) , what is its reported DC50?
result: 1 to 10 nM

query: Sample CC(C)Nc1n[nH]c2c(CN3CCCC3)cc(-c3ccc4c(c3F)CN(C3CCC(=O)NC3=O)C4=O)nc12 (stereo not drawn) — what was its DC50?
result: < 1 nM

query: State the recorded DC50 for this entry: Cn1ccc2c(CN3CCSCC3)cc(-c3ccc4c(c3)CN(C3CCC(=O)NC3=O)C4=O)nc21 (stereo not drawn)
result: 1 to 10 nM

query: What value of DC50 has been reported for the following molecule? N#CC1CCN(Cc2cc(-c3ccc4c(c3)CN(C3CCC(=O)NC3=O)C4=O)nc3c2ccn3C2COC2)CC1 (stereo not drawn)
result: 10 to 100 nM

query: Fill in: DC50 of O=C1CCC(N2Cc3cc(-c4cc(CN5CCCC5)c5cn(C6CCC6)nc5n4)ccc3C2=O)C(=O)N1 (stereo not drawn) is ___
result: 1 to 10 nM

query: Endpoint output: DC50 of CN1CC(n2ccc3c(CN4CCCC4)cc(-c4ccc5c(c4F)CN(C4CCC(=O)NC4=O)C5=O)nc32)C1 (stereo not drawn) . Value?
result: 1 to 10 nM

query: I am curious: what DC50 value has been reported for CN(C)C1CCN(Cc2cc(-c3ccc4c(c3)CN(C3CCC(=O)NC3=O)C4=O)nc3c2ccn3C2COC2)CC1 (stereo not drawn) ?
result: 10 to 100 nM

Count: 8. Required value per item: DC50.
1. O=C1CCC(N2Cc3c(ccc(-c4cc(CN5CCCC5)c5[nH]nc(NC6CCC6)c5n4)c3F)C2=O)C(=O)N1 (stereo not drawn)
2. O=C1CCC(N2Cc3cc(-c4cc(CN5CCC5)c5cc[nH]c5n4)ccc3C2=O)C(=O)N1 (stereo not drawn)
3. O=C1CCC(N2Cc3cc(-c4cc(CN5CCCC5)c5c(n4)NC(=O)C5)ccc3C2=O)C(=O)N1 (stereo not drawn)
4. Cn1ccc2c(CN3CCC4(CCC4)CC3)cc(-c3ccc4c(c3)CN(C3CCC(=O)NC3=O)C4=O)nc21 (stereo not drawn)
5. Cn1cc2nc(-c3ccc4c(c3)CN(C3CCC(=O)NC3=O)C4=O)cc(CN3CCCC3)c2n1 (stereo not drawn)
6. Cn1ccc2c(CN3CCCC3(C)C)cc(-c3ccc4c(c3)CN(C3CCC(=O)NC3=O)C4=O)nc21 (stereo not drawn)
7. O=C1CCC(N2Cc3cc(-c4cc(CN5CCCC5)c5ccn(Cc6ccccc6)c5n4)ccc3C2=O)C(=O)N1 (stereo not drawn)
8. O=C1CCC(N2Cc3cc(-c4cc(CN5CCCC5)c5cn[nH]c5n4)ccc3C2=O)C(=O)N1 (stereo not drawn)

result:
1: < 1 nM; 2: 1 to 10 nM; 3: 100 to 1000 nM; 4: < 1 nM; 5: 1 to 10 nM; 6: < 1 nM; 7: 1 to 10 nM; 8: 1 to 10 nM

Hey, can you go through the list below and give me DC50 for every item?
1. CNc1n[nH]c2c(CN3CCCC3)cc(-c3ccc4c(c3)CN(C3CCC(=O)NC3=O)C4=O)nc12 (stereo not drawn)
2. O=C1CCC(N2Cc3cc(-c4cc(CN5CC(F)C5)c5ccn(C6COC6)c5n4)ccc3C2=O)C(=O)N1 (stereo not drawn)

result:
1 to 10 nM
1 to 10 nM

Origin of measurements: patent US20250214991A1
